Biological target: Penicillin-binding protein 2x (Streptococcus pneumoniae serotype 4 (strain ATCC BAA-334 / TIGR4))
Experiment: Binding affinity to penicillin-resistant Streptococcus pneumoniae 24 PBP2X by competitive binding assay
Record form. Attribute: pIC50. Fill in for each entry.
Reminder that pIC50 is minus the log10 of a molar concentration.

`CO/N=C(\C(=O)N[C@@H]1C(=O)N2C(C(=O)O)=C(COC(C)=O)CS[C@H]12)c1csc(N)n1` yielded pIC50 of 5.66

`CO/N=C(\C(=O)N[C@@H]1C(=O)N2C(C(=O)O)=C(CSc3nc(=O)c(O)nn3C)CS[C@H]12)c1csc(N)n1` yielded pIC50 of 5.74

###

Record form. Attribute: pIC50. Fill in for each entry.
Molecular target: MecA (Staphylococcus aureus, UniProt Q7DHH4)
Sequence (Q7DHH4 whole entry): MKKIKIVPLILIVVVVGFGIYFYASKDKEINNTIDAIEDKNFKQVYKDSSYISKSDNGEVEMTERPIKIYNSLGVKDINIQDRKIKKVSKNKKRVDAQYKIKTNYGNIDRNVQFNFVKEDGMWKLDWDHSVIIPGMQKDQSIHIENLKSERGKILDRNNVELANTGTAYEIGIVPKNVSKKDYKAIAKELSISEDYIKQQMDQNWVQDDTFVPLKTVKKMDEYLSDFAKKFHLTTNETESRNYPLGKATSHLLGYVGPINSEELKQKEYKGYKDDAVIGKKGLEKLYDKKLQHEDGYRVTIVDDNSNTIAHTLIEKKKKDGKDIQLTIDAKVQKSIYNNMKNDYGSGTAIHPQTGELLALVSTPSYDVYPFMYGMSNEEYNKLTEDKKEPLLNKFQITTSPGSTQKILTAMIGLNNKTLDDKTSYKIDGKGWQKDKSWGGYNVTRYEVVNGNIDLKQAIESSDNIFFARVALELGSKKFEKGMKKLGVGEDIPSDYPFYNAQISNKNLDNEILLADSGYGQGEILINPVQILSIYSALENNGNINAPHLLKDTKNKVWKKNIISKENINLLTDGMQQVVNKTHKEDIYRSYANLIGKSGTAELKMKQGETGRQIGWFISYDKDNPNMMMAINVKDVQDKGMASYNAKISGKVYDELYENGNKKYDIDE
Assay: Binding affinity to methicillin-resistant, vancomycin-intermediate, beta-lactamase-positive Staphylococcus aureus 1287 PBP2a by competitive binding assay
Reminder that pIC50 is minus the log10 of a molar concentration.

CO/N=C(\C(=O)N[C@@H]1C(=O)N2C(C(=O)O)=C(CSc3nc(=O)c(O)nn3C)CS[C@H]12)c1csc(N)n1 [CEFTRIAXONE] yielded pIC50 of 5.44

CO/N=C(\C(=O)N[C@@H]1C(=O)N2C(C(=O)O)=C(COC(C)=O)CS[C@H]12)c1csc(N)n1 [CEFOTAXIME] yielded pIC50 of 5.36

CC1(C)S[C@@H]2[C@H](NC(=O)Cc3ccccc3)C(=O)N2[C@H]1C(=O)O [PENICILLIN G] yielded pIC50 of 4.92

###

Biological target: MecA (Staphylococcus aureus)
Sequence (Q7DHH4 whole entry): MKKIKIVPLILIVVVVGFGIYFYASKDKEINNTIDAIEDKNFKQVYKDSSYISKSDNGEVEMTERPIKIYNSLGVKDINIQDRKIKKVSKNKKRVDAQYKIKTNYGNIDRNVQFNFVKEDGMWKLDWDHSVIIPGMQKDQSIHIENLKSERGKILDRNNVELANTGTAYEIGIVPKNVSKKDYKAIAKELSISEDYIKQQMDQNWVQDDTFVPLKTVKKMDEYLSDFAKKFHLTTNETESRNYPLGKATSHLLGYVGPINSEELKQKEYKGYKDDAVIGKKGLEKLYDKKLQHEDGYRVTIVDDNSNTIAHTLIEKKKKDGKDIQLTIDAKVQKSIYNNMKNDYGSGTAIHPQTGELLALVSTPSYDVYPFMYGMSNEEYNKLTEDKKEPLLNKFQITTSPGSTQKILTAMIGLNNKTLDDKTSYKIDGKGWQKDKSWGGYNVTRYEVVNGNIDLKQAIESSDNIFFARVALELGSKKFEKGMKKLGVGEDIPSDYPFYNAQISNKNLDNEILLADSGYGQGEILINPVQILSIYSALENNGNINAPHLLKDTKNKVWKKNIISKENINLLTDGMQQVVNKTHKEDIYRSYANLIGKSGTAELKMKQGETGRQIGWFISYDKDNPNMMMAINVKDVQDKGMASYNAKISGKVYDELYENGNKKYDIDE
Experiment: Binding affinity to methicillin-resistant, heteroresistant vancomycin-intermediate, beta-lactamase-negative Staphylococcus aureus 873 PBP2a by competitive binding assay
pIC50: −log10 of the molar value.
observation_type: pIC50

Value sought: pIC50, system MecA (Staphylococcus aureus), item `CO/N=C(\C(=O)N[C@@H]1C(=O)N2C(C(=O)O)=C(COC(C)=O)CS[C@H]12)c1csc(N)n1` . Result: < 3.55

Value sought: pIC50, system MecA (Staphylococcus aureus), item `CC1(C)S[C@@H]2[C@H](NC(=O)Cc3ccccc3)C(=O)N2[C@H]1C(=O)O` . Result: 3.72

Value sought: pIC50, system MecA (Staphylococcus aureus), item `CO/N=C(\C(=O)N[C@@H]1C(=O)N2C(C(=O)O)=C(CSc3nc(=O)c(O)nn3C)CS[C@H]12)c1csc(N)n1` . Result: < 3.64

###

Record form. Attribute: IC50. Fill in for each entry.
Biological target: Penicillin-binding protein 1A (Streptococcus pneumoniae serotype 4 (strain ATCC BAA-334 / TIGR4), UniProt Q04707)
Sequence (Q04707 whole entry): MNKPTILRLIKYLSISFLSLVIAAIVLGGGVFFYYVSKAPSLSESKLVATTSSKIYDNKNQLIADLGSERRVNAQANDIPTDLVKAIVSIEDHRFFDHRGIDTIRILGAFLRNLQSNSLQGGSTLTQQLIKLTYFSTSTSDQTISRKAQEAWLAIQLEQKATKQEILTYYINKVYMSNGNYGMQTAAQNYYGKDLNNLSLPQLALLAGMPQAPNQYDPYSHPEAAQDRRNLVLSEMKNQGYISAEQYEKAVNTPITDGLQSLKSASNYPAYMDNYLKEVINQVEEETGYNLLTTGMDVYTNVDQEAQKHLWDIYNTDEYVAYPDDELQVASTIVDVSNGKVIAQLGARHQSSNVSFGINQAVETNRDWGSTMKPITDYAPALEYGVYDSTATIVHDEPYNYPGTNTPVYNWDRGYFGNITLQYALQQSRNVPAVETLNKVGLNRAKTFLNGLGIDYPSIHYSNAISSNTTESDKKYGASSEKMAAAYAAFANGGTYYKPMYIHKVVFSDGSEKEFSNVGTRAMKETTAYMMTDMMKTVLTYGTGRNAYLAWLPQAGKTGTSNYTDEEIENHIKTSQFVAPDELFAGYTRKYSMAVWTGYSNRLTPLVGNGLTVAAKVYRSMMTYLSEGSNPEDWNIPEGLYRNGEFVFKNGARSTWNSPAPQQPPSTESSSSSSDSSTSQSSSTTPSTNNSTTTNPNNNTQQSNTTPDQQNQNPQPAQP
Test: Binding affinity to penicillin-resistant Streptococcus pneumoniae 3413 PBP1A by competitive binding assay
Form field: result (number plus unit)

`CO/N=C(\C(=O)N[C@@H]1C(=O)N2C(C(=O)O)=C(CSc3nc(=O)c(O)nn3C)CS[C@H]12)c1csc(N)n1` yielded IC50 of 451 nM

`CO/N=C(\C(=O)N[C@@H]1C(=O)N2C(C(=O)O)=C(COC(C)=O)CS[C@H]12)c1csc(N)n1` yielded IC50 of 549 nM

###

Target: Penicillin-binding protein 2B (Streptococcus pneumoniae serotype 4 (strain ATCC BAA-334 / TIGR4), UniProt P0A3M5)
Sequence (P0A3M5 whole entry): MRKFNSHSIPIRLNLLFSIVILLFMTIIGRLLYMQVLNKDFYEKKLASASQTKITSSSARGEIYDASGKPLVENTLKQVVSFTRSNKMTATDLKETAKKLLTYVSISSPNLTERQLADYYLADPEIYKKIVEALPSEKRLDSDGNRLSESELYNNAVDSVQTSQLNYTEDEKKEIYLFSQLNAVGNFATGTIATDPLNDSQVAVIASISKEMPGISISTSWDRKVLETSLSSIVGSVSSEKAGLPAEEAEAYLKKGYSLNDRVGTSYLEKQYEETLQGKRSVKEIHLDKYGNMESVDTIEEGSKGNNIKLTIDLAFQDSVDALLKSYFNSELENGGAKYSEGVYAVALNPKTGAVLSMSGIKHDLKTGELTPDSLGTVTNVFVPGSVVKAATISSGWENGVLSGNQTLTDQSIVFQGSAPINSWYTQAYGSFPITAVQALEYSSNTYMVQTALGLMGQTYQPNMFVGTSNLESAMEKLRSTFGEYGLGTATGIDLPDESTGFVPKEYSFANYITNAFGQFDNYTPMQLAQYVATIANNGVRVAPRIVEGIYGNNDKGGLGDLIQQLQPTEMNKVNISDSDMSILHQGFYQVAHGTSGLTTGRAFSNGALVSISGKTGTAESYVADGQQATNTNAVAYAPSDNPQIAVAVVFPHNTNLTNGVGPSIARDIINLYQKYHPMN
Experiment: Binding affinity to penicillin-resistant Streptococcus pneumoniae 2527 PBP2B by competitive binding assay
observation_type: IC50 (µM)
Lab book: enter the figure in µM, no units written.

`CO/N=C(\C(=O)N[C@@H]1C(=O)N2C(C(=O)O)=C(COC(C)=O)CS[C@H]12)c1csc(N)n1` yielded IC50 of 8.78

`CO/N=C(\C(=O)N[C@@H]1C(=O)N2C(C(=O)O)=C(CSc3nc(=O)c(O)nn3C)CS[C@H]12)c1csc(N)n1` yielded IC50 of 7.21

###

Target: Penicillin-binding protein 2x (Streptococcus pneumoniae serotype 4 (strain ATCC BAA-334 / TIGR4), UniProt P14677)
Sequence (P14677 whole entry, looked up): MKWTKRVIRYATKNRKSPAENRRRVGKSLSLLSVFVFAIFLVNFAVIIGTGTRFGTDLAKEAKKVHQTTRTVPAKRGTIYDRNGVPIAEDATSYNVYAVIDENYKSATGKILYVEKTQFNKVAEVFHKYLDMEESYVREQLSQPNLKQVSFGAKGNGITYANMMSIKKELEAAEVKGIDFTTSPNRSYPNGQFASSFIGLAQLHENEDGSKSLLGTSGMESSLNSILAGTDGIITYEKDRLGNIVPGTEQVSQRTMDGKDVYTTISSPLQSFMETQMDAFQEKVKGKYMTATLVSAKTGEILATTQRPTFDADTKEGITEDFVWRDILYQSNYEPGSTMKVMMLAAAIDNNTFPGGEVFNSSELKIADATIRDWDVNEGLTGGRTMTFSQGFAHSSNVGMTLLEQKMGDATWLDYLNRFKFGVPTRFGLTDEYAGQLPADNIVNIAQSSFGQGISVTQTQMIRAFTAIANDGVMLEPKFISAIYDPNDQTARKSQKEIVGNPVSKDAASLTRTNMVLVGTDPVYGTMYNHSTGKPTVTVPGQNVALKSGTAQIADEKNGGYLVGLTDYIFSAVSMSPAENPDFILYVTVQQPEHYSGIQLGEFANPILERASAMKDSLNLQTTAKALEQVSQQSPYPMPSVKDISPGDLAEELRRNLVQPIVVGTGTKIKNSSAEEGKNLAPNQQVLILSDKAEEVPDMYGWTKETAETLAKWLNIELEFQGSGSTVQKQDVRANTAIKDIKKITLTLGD
Assay: Binding affinity to penicillin-resistant Streptococcus pneumoniae 2527 PBP2X by competitive binding assay
Record form. Attribute: IC50. Fill in for each entry.
Lab book: enter the figure in nM, no units written.

CO/N=C(\C(=O)N[C@@H]1C(=O)N2C(C(=O)O)=C(COC(C)=O)CS[C@H]12)c1csc(N)n1 [CEFOTAXIME] yielded IC50 of 220

CO/N=C(\C(=O)N[C@@H]1C(=O)N2C(C(=O)O)=C(CSc3nc(=O)c(O)nn3C)CS[C@H]12)c1csc(N)n1 [CEFTRIAXONE] yielded IC50 of 180

###

Record form. Attribute: pIC50. Fill in for each entry.
Molecular target: MecA (Staphylococcus aureus)
Assay: Binding affinity to against methicillin-, daptomycin-resistant, vancomycin-intermediate, beta-lactamase-positive Staphylococcus aureus 25 PBP2a by competitive binding assay
Reminder that pIC50 is minus the log10 of a molar concentration.

CC1(C)S[C@@H]2[C@H](NC(=O)Cc3ccccc3)C(=O)N2[C@H]1C(=O)O [PENICILLIN G] yielded pIC50 of 4.92

CO/N=C(\C(=O)N[C@@H]1C(=O)N2C(C(=O)O)=C(COC(C)=O)CS[C@H]12)c1csc(N)n1 [CEFOTAXIME] yielded pIC50 of 5.96

CO/N=C(\C(=O)N[C@@H]1C(=O)N2C(C(=O)O)=C(CSc3nc(=O)c(O)nn3C)CS[C@H]12)c1csc(N)n1 [CEFTRIAXONE] yielded pIC50 of 6.35

###

Biological target: MecA (Staphylococcus aureus, UniProt Q7DHH4)
Sequence (Q7DHH4 whole entry): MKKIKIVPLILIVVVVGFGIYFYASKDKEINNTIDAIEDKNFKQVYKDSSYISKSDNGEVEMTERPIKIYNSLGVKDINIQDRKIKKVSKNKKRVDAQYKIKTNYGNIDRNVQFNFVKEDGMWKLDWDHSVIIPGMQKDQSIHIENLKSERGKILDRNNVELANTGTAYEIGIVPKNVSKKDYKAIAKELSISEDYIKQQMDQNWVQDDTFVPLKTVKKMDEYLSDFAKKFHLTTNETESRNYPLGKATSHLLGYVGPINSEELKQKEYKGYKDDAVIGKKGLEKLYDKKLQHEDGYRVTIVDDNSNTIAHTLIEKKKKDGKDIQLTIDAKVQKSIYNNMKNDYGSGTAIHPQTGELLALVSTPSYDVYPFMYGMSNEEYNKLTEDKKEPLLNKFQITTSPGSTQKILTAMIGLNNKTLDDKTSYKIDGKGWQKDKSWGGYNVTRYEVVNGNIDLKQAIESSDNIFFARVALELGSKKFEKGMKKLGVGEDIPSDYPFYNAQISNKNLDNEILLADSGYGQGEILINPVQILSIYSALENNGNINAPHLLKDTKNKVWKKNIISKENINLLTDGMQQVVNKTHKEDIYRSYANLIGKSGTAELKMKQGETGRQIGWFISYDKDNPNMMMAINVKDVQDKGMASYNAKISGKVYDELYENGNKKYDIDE
Assay: Binding affinity to methicillin-, linezolid-resistant, vancomycin-intermediate, beta-lactamase-positive Staphylococcus aureus 2149A PBP2a by competitive binding assay
Record form. Attribute: IC50. Fill in for each entry.
Lab book: enter the figure in µM, no units written.

`CC1(C)S[C@@H]2[C@H](NC(=O)Cc3ccccc3)C(=O)N2[C@H]1C(=O)O` yielded IC50 of 5.98

`CO/N=C(\C(=O)N[C@@H]1C(=O)N2C(C(=O)O)=C(CSc3nc(=O)c(O)nn3C)CS[C@H]12)c1csc(N)n1` yielded IC50 of 3.61
